What Z-score was measured for each of the following?
# EXPERIMENTAL_TARGET: Human IP6K1 (Homo sapiens)
# Construct: GST (N, cleaved yes); made in house; host or cells: C43 E. coli, pGEX-6P-2
# EXPERIMENTAL_DETAILS: IP6K1 high-throughput screen of the Sigma LOPAC (ADP-Glo Max, single point);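 further: final compound concentration 10µM in 5% DMSO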
# Assay type: biochemical
# EXPERIMENTAL_PARAMETERS: LOPAC single-point screen; Z-score from raw signal with plate average and StDev
Structures can show the parent of a compound that is named as a salt.
Could you respond with only the numeric value?

Endpoint output: Z-score of Cl.Clc1cc(I)cc(Cl)c1NC1=NCCN1 [p-Iodoclonidine hydrochloride] . Value?
-0.2605

Endpoint output: Z-score of O=C(O)c1cc(=O)c2ccccc2[nH]1 . Value?
-0.1933

Endpoint output: Z-score of c1ccc2c(CC3=NCCN3)cccc2c1 [Naphazoline hydrochloride] . Value?
-0.2681

Endpoint output: Z-score of C[C@@H]1C(=O)NC2=Nc3cccc(Cl)c3CN21 . Value?
-0.455

Endpoint output: Z-score of Nc1nc2c(nc(Br)n2[C@@H]2O[C@@H]3COP(=O)([O-])O[C@H]3[C@H]2O)c(=O)[nH]1.[Na+] [8-Bromo-cGMP sodium] . Value?
-0.4562

Endpoint output: Z-score of Cl.Cn1ccc2cc(NC(=O)Nc3cccnc3)ccc21 [SB 200646 hydrochloride] . Value?
-0.3963

Endpoint output: Z-score of O=C1CCC(N2C(=O)c3ccccc3C2=O)C(=O)N1 (racemic) [(±)-Thalidomide] . Value?
-0.2284

Endpoint output: Z-score of NC(=O)c1cccc(N)c1 [3-aminobenzamide] . Value?
-0.2496

Endpoint output: Z-score of C=CCc1ccccc1OCC(O)CNC1(C)CCC(C(C)(C)NC(=O)CBr)CC1 (stereo not drawn) . Value?
-0.4687

====

What Raw Signal was measured for each of the following?
# EXPERIMENTAL_TARGET: Human IP6K1 (Homo sapiens)
# Construct: GST (N, cleaved yes); made in house; host or cells: C43 E. coli, pGEX-6P-2
# EXPERIMENTAL_DETAILS: IP6K1 high-throughput screen of the Sigma LOPAC (ADP-Glo Max, single point);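 further: final compound concentration 10µM in 5% DMSO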
# Format: biochemical
# EXPERIMENTAL_PARAMETERS: LOPAC single-point screen, ADP-Glo Max raw signal per well
Counter-ions that a name gives are not always drawn.
Could you respond with only the numeric value?

Endpoint output: Raw Signal of Nc1nc(OCc2ccccc2)c2nc[nH]c2n1 . Value?
56623

Endpoint output: Raw Signal of C[C@]12CC[C@@H](O)C[C@@H]1CC[C@@H]1[C@@H]2CC[C@]2(C)[C@@H](C(=O)CO)CC[C@@H]12 . Value?
54259

Endpoint output: Raw Signal of Cc1ccc(N(CC2=NCCN2)c2cccc(O)c2)cc1 [Phentolamine mesylate] . Value?
54426

Endpoint output: Raw Signal of CCNC(=O)[C@H]1O[C@@H](n2cnc3c(NCc4ccccc4)ncnc32)[C@H](O)[C@@H]1O . Value?
59001

Endpoint output: Raw Signal of NN=C(N)N.NN=C(N)N.O=S(=O)(O)O [Aminoguanidine hemisulfate] . Value?
58107

Endpoint output: Raw Signal of COc1cc(/C=C(\C#N)C(=O)c2ccc(O)c(O)c2)cc(I)c1O . Value?
53763

Endpoint output: Raw Signal of CCCCC1(C2CCCC2)Cc2cc(OCC(=O)O)c(Cl)c(Cl)c2C1=O (stereo in doubt) [R(+)-Butylindazone] . Value?
53463

Endpoint output: Raw Signal of Oc1cc2c(cc1O)[C@H]1c3ccccc3CN[C@@H]1CC2 (racemic) [Dihydrexidine hydrochloride] . Value?
53851

====

What Raw Signal was measured for each of the following?
# EXPERIMENTAL_TARGET: Human IP6K1 (Homo sapiens, UniProt Q92551)
# Construct: GST (N, cleaved yes); made in house; host or cells: C43 E. coli, pGEX-6P-2
# Sequence (Q92551 whole entry): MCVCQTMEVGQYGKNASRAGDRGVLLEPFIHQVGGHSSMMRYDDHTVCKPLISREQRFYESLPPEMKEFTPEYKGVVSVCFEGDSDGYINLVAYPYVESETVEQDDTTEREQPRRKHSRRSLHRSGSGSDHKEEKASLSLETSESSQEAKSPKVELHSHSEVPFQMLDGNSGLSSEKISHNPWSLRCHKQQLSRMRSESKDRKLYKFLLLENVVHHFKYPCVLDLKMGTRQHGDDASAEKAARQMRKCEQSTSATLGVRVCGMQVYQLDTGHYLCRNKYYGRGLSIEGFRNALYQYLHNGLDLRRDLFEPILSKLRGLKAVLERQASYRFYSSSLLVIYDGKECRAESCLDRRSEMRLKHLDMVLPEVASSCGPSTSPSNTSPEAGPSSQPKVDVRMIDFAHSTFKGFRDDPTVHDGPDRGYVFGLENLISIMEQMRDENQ
# EXPERIMENTAL_DETAILS: IP6K1 high-throughput screen of the Sigma LOPAC (ADP-Glo Max, single point);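 further: final compound concentration 10µM in 5% DMSO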
# Format: biochemical
# EXPERIMENTAL_PARAMETERS: LOPAC single-point screen, ADP-Glo Max raw signal per well
Counter-ions that a name gives are not always drawn.
Could you respond with only the numeric value?

Record CN(C)CCOC(c1ccccc1)c1ccccc1 [Diphenhydramine hydrochloride] : what is its Raw Signal with Human IP6K1 (Homo sapiens, UniProt Q92551)?
54459

Record CCn1c(=O)c2nc(-c3ccccc3)[nH]c2n(CC)c1=O [1,3-Diethyl-8-phenylxanthine] : what is its Raw Signal with Human IP6K1 (Homo sapiens, UniProt Q92551)?
56931

Record O=C(O)[C@H]1C[C@H](C(=O)O)N1 (relative stereo) [trans-Azetidine-2,4-dicarboxylic acid] : what is its Raw Signal with Human IP6K1 (Homo sapiens, UniProt Q92551)?
57895

Record CSC(N)=NCCC[C@H](N)C(=O)O [S-Methyl-L-thiocitrulline acetate] : what is its Raw Signal with Human IP6K1 (Homo sapiens, UniProt Q92551)?
53034

Record CC1=C(/C=C/C(C)=C/C=C/C(C)=C/C(=O)Nc2ccc(O)cc2)C(C)(C)CCC1 [Retinoic acid p-hydroxyanilide] : what is its Raw Signal with Human IP6K1 (Homo sapiens, UniProt Q92551)?
55637

Record Cl.FC(F)(F)c1cc(CO[C@H]2CCCN[C@H]2c2ccccc2)cc(C(F)(F)F)c1 [L-733,060 hydrochloride] : what is its Raw Signal with Human IP6K1 (Homo sapiens, UniProt Q92551)?
52038

Record CC(C)(C)c1cc(/C=C(\C#N)C(N)=S)cc(C(C)(C)C)c1O [Tyrphostin AG 879] : what is its Raw Signal with Human IP6K1 (Homo sapiens, UniProt Q92551)?
56085

Record CCN(CC)CCNC(=O)c1cc(Cl)c(N)cc1OC.Cl [Metoclopramide hydrochloride] : what is its Raw Signal with Human IP6K1 (Homo sapiens, UniProt Q92551)?
53948

====

# EXPERIMENTAL_TARGET: Human IP6K1 (Homo sapiens)
# Construct: GST (N, cleaved yes); made in house; host or cells: C43 E. coli, pGEX-6P-2
# EXPERIMENTAL_DETAILS: IP6K1 high-throughput screen of the Sigma LOPAC (ADP-Glo Max, single point);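 further: final compound concentration 10µM in 5% DMSO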
# Type: biochemical
# EXPERIMENTAL_PARAMETERS: LOPAC single-point screen; Z-score from plate average and StDev
Counter-ions that a name gives are not always drawn.
What Z-score was measured for each of the following?
Could you respond with only the numeric value?

Endpoint output: Z-score of Br.CCCN(CCC)[C@@H]1CCc2ccc(O)cc2C1 [R-(+)-7-Hydroxy-DPAT hydrobromide] . Value?
1.572

Endpoint output: Z-score of O=C(O)CCCCCCC1C(=O)NC(=O)N1CCC(O)C1CCCCC1 (stereo not shown) [BW 245C] . Value?
1.71

Endpoint output: Z-score of N=C(N)N1CCc2ccccc2C1 [Debrisoquin sulfate] . Value?
1.3741

Endpoint output: Z-score of Nc1nc(N)c2nc(-c3ccccc3)c(N)nc2n1 [Triamterene] . Value?
1.836

Endpoint output: Z-score of CN(C)CCCN1c2ccccc2Sc2ccccc21 [Promazine hydrochloride] . Value?
1.394

Endpoint output: Z-score of C[N+]1(C)C2CCC1CC(OC(=O)c1c[nH]c3ccccc13)C2.[I-] (stereo not shown) . Value?
2.115

Endpoint output: Z-score of CCN(CC)CCNC(=O)c1ccc(NC(C)=O)cc1.Cl [N-Acetylprocainamide hydrochloride] . Value?
2.198

Endpoint output: Z-score of O=C1Cc2c([nH]c3ccc(Br)cc23)-c2ccccc2N1 [Kenpaullone] . Value?
1.798

Endpoint output: Z-score of C=CC(N)CCC(=O)O (racemic) [(±)-gamma-Vinyl GABA] . Value?
2.33

Endpoint output: Z-score of CCCC(CCC)C(=O)O [Valproic acid sodium] . Value?
1.772

Endpoint output: Z-score of NC12CC3CC(CC(C3)C1)C2 [Amantadine hydrochloride] . Value?
1.914

Endpoint output: Z-score of CCNC(=O)[C@H]1O[C@@H](n2cnc3c(N)nc(NCCc4ccc(CCC(=O)O)cc4)nc32)[C@H](O)[C@@H]1O.Cl [CGS-21680 hydrochloride] . Value?
1.449

Endpoint output: Z-score of CC(=O)C(C)=NO [2,3-Butanedione monoxime] . Value?
1.485

Endpoint output: Z-score of CN(C)C/C=C(/c1ccc(Br)cc1)c1cccnc1 [Zimelidine dihydrochloride] . Value?
1.38

Endpoint output: Z-score of CCCn1c(=O)c2[nH]c(-c3ccc(OCC(=O)Nc4ccc(C#N)cc4)cc3)nc2n(CCC)c1=O [MRS 1754] . Value?
1.983

Endpoint output: Z-score of CC(C)C(=O)Nc1ccc([N+](=O)[O-])c(C(F)(F)F)c1 [Flutamide] . Value?
1.9328

Endpoint output: Z-score of CCCCNC(=O)NS(=O)(=O)c1ccc(C)cc1 [Tolbutamide] . Value?
1.83

Endpoint output: Z-score of CCN(CC)CCOCCOC(=O)C1(c2ccccc2)CCCC1 [Carbetapentane citrate] . Value?
1.669

Endpoint output: Z-score of CN(C)CCOC(=O)COc1ccc(Cl)cc1 [Centrophenoxine hydrochloride] . Value?
1.953
